Species: Homo sapiens
Assay: Selectivity ratio of pEC50 for human beta3 adrenergic receptor over beta-2 adrenergic receptor
Define the label as satisfied when Selectivity ratio is strictly less than 300 and as not satisfied in all remaining cases.

Example entries begin here.
Query: In plain terms, does O=C(O)c1ccoc1-c1cccc(NCCNC[C@H](O)c2cccc(Cl)c2)c1 come in under 300 for Selectivity ratio?
Response: not satisfied

Query: In plain terms, does C[C@H](CNc1ccc(-c2sccc2C(=O)O)cc1)NC[C@H](O)c1cccc(Cl)c1 come in under 300 for Selectivity ratio?
Response: not satisfied

Query: In plain terms, does O=C(O)c1ccsc1-c1cccc(NCCNC[C@H](O)c2cccc(Cl)c2)c1 come in under 300 for Selectivity ratio?
Response: not satisfied

Query: In plain terms, does C[C@H](CNc1cccc(-c2csc(C(=O)O)n2)c1)NC[C@H](O)c1cccc(Cl)c1 come in under 300 for Selectivity ratio?
Response: satisfied

Next:
Query: In plain terms, does C[C@H](CNc1ccc(CC(=O)O)cc1)NC[C@H](O)c1cccc(Cl)c1 come in under 300 for Selectivity ratio?
Response: satisfied

Query: In plain terms, does C[C@H](CNc1ccc(CCC(=O)O)cc1)NC[C@H](O)c1cccc(Cl)c1 come in under 300 for Selectivity ratio?
Response: satisfied

Query: In plain terms, does C[C@H](CNc1cccc(-c2occc2C(=O)O)c1)NC[C@H](O)c1cccc(Cl)c1 come in under 300 for Selectivity ratio?
Response: not satisfied

###

Molecular target: Beta-3 adrenergic receptor (Homo sapiens, UniProt P13945)
Sequence (P13945 whole entry, looked up): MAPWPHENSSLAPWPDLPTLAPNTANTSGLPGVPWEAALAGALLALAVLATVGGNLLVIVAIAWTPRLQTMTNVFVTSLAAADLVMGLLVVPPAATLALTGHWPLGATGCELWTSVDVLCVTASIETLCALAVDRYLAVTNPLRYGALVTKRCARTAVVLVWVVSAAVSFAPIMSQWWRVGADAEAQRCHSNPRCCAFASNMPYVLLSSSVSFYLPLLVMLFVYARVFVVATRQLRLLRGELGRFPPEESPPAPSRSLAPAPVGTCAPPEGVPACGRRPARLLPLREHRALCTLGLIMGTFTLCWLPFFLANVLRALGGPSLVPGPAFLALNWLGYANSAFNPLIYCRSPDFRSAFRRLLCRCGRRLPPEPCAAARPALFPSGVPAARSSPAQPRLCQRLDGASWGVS
Test: Agonist activity at human beta-3 adrenergic receptor expressed in CHO cells assessed as cAMP accumulation relative to R-(-)-isoproterenol
Assay type: functional, cell-based
Readout label: Emax (%)
One number for each entry, in %.

// solved cases for Emax follow
Query: // Emax lookup, key: C[C@H](CNc1ccc(-c2nc(C(=O)O)co2)cc1)NC[C@H](O)c1cccc(Cl)c1
Response: 92

Query: // Emax lookup, key: C[C@H](CNc1ccc(-c2csc(C(=O)O)n2)cc1)NC[C@H](O)c1cccc(Cl)c1
Response: 100

Query: // Emax lookup, key: C[C@H](CNc1cccc(-c2nc(C(=O)O)cs2)c1)NC[C@H](O)c1cccc(Cl)c1
Response: 97

Query: // Emax lookup, key: C[C@H](CNc1ccc(-c2nc(C(=O)O)cs2)cc1)NC[C@H](O)c1cccc(Cl)c1
Response: 100

Query: // Emax lookup, key: O=C(O)c1ccsc1-c1cccc(NCCNC[C@H](O)c2cccc(Cl)c2)c1
Response: 103

For every listed record, write down its Emax.
1. C[C@H](CNc1ccc(-c2sccc2C(=O)O)cc1)NC[C@H](O)c1cccc(Cl)c1
2. C[C@H](CNc1cccc(-c2ocnc2C(=O)O)c1)NC[C@H](O)c1cccc(Cl)c1
3. C[C@H](CNc1cccc(-c2sccc2C(=O)O)c1)NC[C@H](O)c1cccc(Cl)c1

Response:
96
102
85

###

Biological target: Beta-1 adrenergic receptor (Homo sapiens, UniProt P08588)
Sequence (P08588 whole entry, looked up): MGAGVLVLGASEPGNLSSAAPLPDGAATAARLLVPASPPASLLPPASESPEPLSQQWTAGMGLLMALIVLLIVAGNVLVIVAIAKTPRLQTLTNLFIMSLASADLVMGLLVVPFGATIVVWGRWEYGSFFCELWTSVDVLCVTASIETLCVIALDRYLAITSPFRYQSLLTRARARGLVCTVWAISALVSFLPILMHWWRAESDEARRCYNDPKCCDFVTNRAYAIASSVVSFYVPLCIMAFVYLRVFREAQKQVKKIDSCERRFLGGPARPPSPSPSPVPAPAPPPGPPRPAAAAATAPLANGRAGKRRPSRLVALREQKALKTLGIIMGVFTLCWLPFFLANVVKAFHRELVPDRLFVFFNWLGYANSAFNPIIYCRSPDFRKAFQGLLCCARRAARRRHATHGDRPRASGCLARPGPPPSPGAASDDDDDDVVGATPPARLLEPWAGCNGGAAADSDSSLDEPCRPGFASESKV
Experiment: Agonist activity at human beta-1 adrenergic receptor expressed in CHO cells assessed as cAMP accumulation relative to R-(-)-isoproterenol
Assay type: functional, cell-based
Readout label: Emax (%)
One number for each entry, in %.

// solved cases for Emax follow
Query: // Emax lookup, key: C[C@H](CNc1cccc(-c2nc(C(=O)O)co2)c1)NC[C@H](O)c1cccc(Cl)c1
Response: 30

Query: // Emax lookup, key: C[C@H](CNc1cccc(-c2nc(C(=O)O)cs2)c1)NC[C@H](O)c1cccc(Cl)c1
Response: 21

Query: // Emax lookup, key: C[C@H](CNc1ccc(-c2nc(C(=O)O)co2)cc1)NC[C@H](O)c1cccc(Cl)c1
Response: 23

Query: // Emax lookup, key: C[C@H](CNc1ccc(-c2ocnc2C(=O)O)cc1)NC[C@H](O)c1cccc(Cl)c1
Response: 24

Query: // Emax lookup, key: C[C@H](CNc1ccc(-c2occc2C(=O)O)cc1)NC[C@H](O)c1cccc(Cl)c1
Response: 18

For every listed record, write down its Emax.
1. C[C@H](CNc1cccc(-c2csc(C(=O)O)n2)c1)NC[C@H](O)c1cccc(Cl)c1
2. C[C@H](CNc1ccc(-c2csc(C(=O)O)n2)cc1)NC[C@H](O)c1cccc(Cl)c1
3. C[C@H](CNc1ccc(-c2nc(C(=O)O)cs2)cc1)NC[C@H](O)c1cccc(Cl)c1

Response:
1: 20; 2: 19; 3: 21

Cited source: ChEMBL document CHEMBL1140647
